# measured on: UniProt:P17252
endpoint: pIC50
Answer as the number alone; pIC50 is minus log10 of concentration in mol/L.

Sample NC1=N/C(=C2/CCNC(=O)c3[nH]c4ccccc4c32)C(=O)N1 [Compound 2] , system: UniProt:P17252. Its pIC50 is 5.60

---

Listed compounds paired with reported pIC50
# System: IL-2 production
# test method notes: Inhibition of IL-2 production measured by competitive EIA in PMA/PHA-activated Jurkat T cells
# Assay type: cell-based, human
# run parameters: Homo sapiens, Jurkat, 24 h, PMA/PHA-activated Jurkat T cells, EIA; means of two experiments, standard deviation in parentheses
Answer as the number alone; pIC50 is minus log10 of concentration in mol/L.

NC1=NC(=O)/C(=C2\CCNC(=O)c3[nH]c(Br)cc32)N1 [Hymenialdisine 1, hymenialdisine, reference compound]
5.62

Documented pIC50 of NC1=N/C(=C2/CCNC(=O)c3[nH]c4ccccc4c32)C(=O)N1 [Compound 2] : 5.46

---

Target chain: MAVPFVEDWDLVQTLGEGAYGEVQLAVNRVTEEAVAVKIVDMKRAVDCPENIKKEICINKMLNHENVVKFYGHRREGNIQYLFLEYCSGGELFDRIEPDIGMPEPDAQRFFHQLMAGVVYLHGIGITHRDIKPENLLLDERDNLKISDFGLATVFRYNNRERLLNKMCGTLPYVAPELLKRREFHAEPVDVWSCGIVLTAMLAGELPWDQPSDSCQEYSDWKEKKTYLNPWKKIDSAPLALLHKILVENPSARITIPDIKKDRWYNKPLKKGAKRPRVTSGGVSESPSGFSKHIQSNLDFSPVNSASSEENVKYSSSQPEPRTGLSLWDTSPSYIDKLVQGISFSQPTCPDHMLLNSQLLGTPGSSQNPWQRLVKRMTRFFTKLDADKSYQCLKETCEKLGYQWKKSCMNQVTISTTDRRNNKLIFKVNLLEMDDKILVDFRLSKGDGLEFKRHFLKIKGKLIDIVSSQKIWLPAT
endpoint: pIC50
Answer as the number alone; pIC50 is minus log10 of concentration in mol/L.

Documented pIC50 of "NC1=N/C(=C2/CCNC(=O)c3[nH]c4ccccc4c32)C(=O)N1" : 6.63
